The molecules listed here are annotated with their Drug concentration, time course.
Condition label: normal mice, oral gavage, 3mg/kg; Kidney; 15h

OC[C@H]1O[C@@H](c2ccc(F)c(Cc3cc4ccccc4s3)c2)[C@H](O)[C@@H](O)[C@@H]1O [Ipragliflozin, ipragliflozin]	3000
Cc1ccc(-c2cc(C(F)(F)F)nn2-c2ccc(S(N)(=O)=O)cc2)cc1 [Celecoxib, celecoxib]	450
Cn1c(=O)cc(N2CCC[C@@H](N)C2)n(Cc2ccccc2C#N)c1=O [Alogliptin, alogliptin]	50

The recorded Drug concentration, time course for entry N#C[C@@H]1CCCN1C(=O)CNC12CC3CC(CC(O)(C3)C1)C2 [Vildagliptin, vildagliptin] equals 25

The recorded Drug concentration, time course for entry COc1ccc2c(c1)c(CC(=O)O)c(C)n2C(=O)c1ccc(Cl)cc1 [Indomethacin, indomethacin] equals 250

====

Procedure text: in vivo
Condition label: male, ICR, mouse, po, 3 mg/kg, Cmax, oral gavage, Plasma
The compounds listed here are annotated with their Cmax.
Give the value in ng/mL but do not write ng/mL after it.

OC[C@H]1O[C@@H](c2ccc(Cl)c(Cc3ccc(O[C@H]4CCOC4)cc3)c2)[C@H](O)[C@@H](O)[C@@H]1O	412

The recorded Cmax for entry "Cc1ccc(-c2cc(C(F)(F)F)nn2-c2ccc(S(N)(=O)=O)cc2)cc1" equals 983

The recorded Cmax for entry "CC#CCn1c(N2CCC[C@@H](N)C2)nc2c1c(=O)n(Cc1nc(C)c3ccccc3n1)c(=O)n2C" equals 578

The recorded Cmax for entry "COc1ccc2c(c1)c(CC(=O)O)c(C)n2C(=O)c1ccc(Cl)cc1" equals 1170

The recorded Cmax for entry "Cn1c(=O)cc(N2CCC[C@@H](N)C2)n(Cc2ccccc2C#N)c1=O" equals 943

The recorded Cmax for entry "CC1(C)S[C@@H]2[C@H](NC(=O)[C@H](N)c3ccc(O)cc3)C(=O)N2[C@H]1C(=O)O" equals 945

The recorded Cmax for entry "OC[C@H]1O[C@@H](c2ccc(F)c(Cc3cc4ccccc4s3)c2)[C@H](O)[C@@H](O)[C@@H]1O" equals 975

The recorded Cmax for entry "N#C[C@@H]1CCCN1C(=O)CNC12CC3CC(CC(O)(C3)C1)C2" equals 765

====

Condition label: normal mice, oral gavage, 3mg/kg; Liver; 12h
Outcome measure: Drug concentration, time course
Give the figure only, with no unit attached.

Look over these answered cases.
CC#CCn1c(N2CCC[C@@H](N)C2)nc2c1c(=O)n(Cc1nc(C)c3ccccc3n1)c(=O)n2C [Linagliptin, linagliptin]	300
OC[C@H]1O[C@@H](c2ccc(Cl)c(Cc3ccc(O[C@H]4CCOC4)cc3)c2)[C@H](O)[C@@H](O)[C@@H]1O [Jardiance]	50

// below: Drug concentration, time course requested for another compound
The recorded Drug concentration, time course for entry OC[C@H]1O[C@@H](c2ccc(F)c(Cc3cc4ccccc4s3)c2)[C@H](O)[C@@H](O)[C@@H]1O [Ipragliflozin, ipragliflozin] equals 300

====

Condition label: normal mice, oral gavage, 3mg/kg; Kidney; 21h
The compounds listed here are annotated with their Drug concentration, time course.
Give the figure only, with no unit attached.

COc1ccc2c(c1)c(CC(=O)O)c(C)n2C(=O)c1ccc(Cl)cc1 [Indomethacin, indomethacin]	0
OC[C@H]1O[C@@H](c2ccc(F)c(Cc3cc4ccccc4s3)c2)[C@H](O)[C@@H](O)[C@@H]1O [Ipragliflozin, ipragliflozin]	1000
N#C[C@@H]1CCCN1C(=O)CNC12CC3CC(CC(O)(C3)C1)C2 [Vildagliptin, vildagliptin]	0

// below: Drug concentration, time course requested for another compound
The recorded Drug concentration, time course for entry Cn1c(=O)cc(N2CCC[C@@H](N)C2)n(Cc2ccccc2C#N)c1=O [Alogliptin, alogliptin] equals 0
